// provenance: ChEMBL document CHEMBL4732135

measured-target: Amyloid-beta precursor protein (Homo sapiens) (UniProt P05067)
Sequence (P05067 whole entry): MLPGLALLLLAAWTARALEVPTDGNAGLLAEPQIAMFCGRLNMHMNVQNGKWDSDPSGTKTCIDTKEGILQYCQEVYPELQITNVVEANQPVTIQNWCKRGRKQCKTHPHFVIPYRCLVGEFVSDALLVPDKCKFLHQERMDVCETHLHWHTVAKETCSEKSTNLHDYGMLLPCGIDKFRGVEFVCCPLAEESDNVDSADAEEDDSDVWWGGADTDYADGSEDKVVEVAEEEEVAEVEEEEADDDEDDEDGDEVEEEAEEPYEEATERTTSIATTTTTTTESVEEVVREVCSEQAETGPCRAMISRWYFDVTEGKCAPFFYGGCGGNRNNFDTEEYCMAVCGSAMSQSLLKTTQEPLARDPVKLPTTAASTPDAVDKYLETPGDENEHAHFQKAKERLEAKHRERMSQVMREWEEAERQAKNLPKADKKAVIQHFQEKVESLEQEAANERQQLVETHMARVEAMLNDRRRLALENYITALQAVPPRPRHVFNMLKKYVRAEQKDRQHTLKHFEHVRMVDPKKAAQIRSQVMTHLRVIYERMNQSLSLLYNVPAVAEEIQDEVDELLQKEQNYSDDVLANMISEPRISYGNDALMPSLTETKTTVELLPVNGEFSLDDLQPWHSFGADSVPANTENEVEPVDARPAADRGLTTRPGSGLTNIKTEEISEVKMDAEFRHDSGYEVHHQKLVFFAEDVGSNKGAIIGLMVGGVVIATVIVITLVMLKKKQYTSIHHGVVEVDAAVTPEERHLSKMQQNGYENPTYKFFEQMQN
procedure-summary: Inhibition of amyloid beta (1 to 42) (unknown origin) assessed as reduction in peptide aggregation at 2 uM measured after 24 hrs by thioflavin-T fluorescence assay relative to control
Square brackets hold non-standard residues; d marks the D form. Peptide text beside a SMILES is read from it. Phe(4-NO2) = N[C@@H](Cc1ccc([N+](=O)[O-])cc1)C(=O)O; Phe(4-Cl) = N[C@@H](Cc1ccc(Cl)cc1)C(=O)O; Phe(4-Me) = Cc1ccc(C[C@H](N)C(=O)O)cc1; 4Pal = N[C@@H](Cc1ccncc1)C(=O)O; Abu = CC[C@H](N)C(=O)O; βAla = NCCC(=O)O
Listed here are compounds together with their documented inhibition.
Quick reminder: number only, in %, skip the unit.

Please review the entries below; each comes with its answer.
INSERT INTO assay_data (compound, unit_of_measure, recorded_result) VALUES
  ('CC[C@H](C)[C@H](NC(=O)[C@@H](NC(=O)[C@@H](N)C(C)C)C(C)C)C(=O)N[C@@H](CCC(=O)O)C(=O)O (H-VVIE-OH)', '%', 38.8),
  ('CC[C@H](NC(=O)[C@@H](N)CC)C(=O)N[C@H](C(=O)N[C@@H](C)C(=O)O)[C@@H](C)CC (H-[Abu][Abu]IA-OH)', '%', 97.7),
  ('CC[C@H](C)[C@H](NC(=O)CNC(=O)CN)C(=O)N[C@@H](C)C(=O)O (H-GGIA-OH)', '%', 93.6),
  ('CC[C@H](C)[C@H](NC(=O)[C@@H](NC(=O)[C@@H](N)C(C)C)C(C)C)C(=O)N[C@@H](C)C(=O)O (H-VVIA-OH)', '%', 33.9),
  ('CC[C@H](C)[C@H](NC(=O)[C@@H](NC(=O)[C@@H](N)Cc1ccc(Cl)cc1)C(C)C)C(=O)N[C@@H](C)C(=O)O (H-[Phe(4-Cl)]VIA-OH)', '%', 46.4);

Given CC[C@H](C)[C@H](NC(=O)[C@@H](NC(=O)[C@@H](N)Cc1ccc(C)cc1)C(C)C)C(=O)N[C@@H](C)C(=O)O (H-[Phe(4-Me)]VIA-OH) , state its recorded inhibition.
0

What does the data say about its inhibition? Entry: CC[C@H](C)[C@H](NC(=O)[C@@H](NC(=O)[C@@H](N)Cc1ccc([N+](=O)[O-])cc1)C(C)C)C(=O)N[C@@H](C)C(=O)O (H-[Phe(4-NO2)]VIA-OH)
94.8

I would be grateful if you could share the reported inhibition for CC[C@H](C)[C@H](NC(=O)[C@@H](NC(=O)[C@@H](N)C(C)C)C(C)C)C(=O)NCCC(=O)O (H-VVI[βAla]-OH) .
0

Would you kindly share the measured inhibition for CC[C@H](C)[C@H](NC(=O)[C@@H](NC(=O)[C@@H](N)Cc1ccncc1)C(C)C)C(=O)N[C@@H](C)C(=O)O (H-[4Pal]VIA-OH) ?
42.7

----------
# inhibition listing for each entry below
measured-target: UniProt:P05067
procedure-summary: Inhibition of amyloid beta (1 to 42) (unknown origin) assessed as reduction in peptide aggregation at 4 uM measured after 24 hrs by thioflavin-T fluorescence assay relative to control
Square brackets hold non-standard residues; d marks the D form. Peptide text beside a SMILES is read from it. ξ: configuration not given here. Phe(4-tBu) = CC(C)(C)c1ccc(C[C@H](N)C(=O)O)cc1; Oic(3aξ,7aξ) = O=C(O)[C@@H]1CC2CCCCC2N1; Phe(4-Me) = Cc1ccc(C[C@H](N)C(=O)O)cc1; 4Pal = N[C@@H](Cc1ccncc1)C(=O)O; Tle = CC(C)(C)[C@H](N)C(=O)O; β3hP = O=C(O)C[C@@H]1CCCN1
The reply should contain only the number, in %.

Example molecules with recorded inhibition:
INSERT INTO results (molecule, recorded_result) VALUES
  ('CC[C@H](C)[C@H](NC(=O)[C@@H](NC(=O)[C@@H](N)Cc1ccc(C)cc1)C(C)C)C(=O)N[C@@H](C)C(=O)O (H-[Phe(4-Me)]VIA-OH)', 3.2),
  ('CC[C@H](C)[C@H](NC(=O)[C@@H](NC(=O)[C@@H](N)Cc1ccncc1)C(C)C)C(=O)N[C@@H](C)C(=O)O (H-[4Pal]VIA-OH)', 44.2);

# input molecule: CC(C)[C@H](N)C(=O)N[C@H](C(=O)N1C2CCCCC2C[C@H]1C(=O)N[C@@H](C)C(=O)O)C(C)C (stereo partly specified) (H-VV[Oic(3aξ,7aξ)]A-OH) ; wanted: its inhibition
19.3

Quick one: inhibition of CC[C@H](C)[C@H](NC(=O)C[C@@H]1CCCN1C(=O)[C@@H](N)C(C)C)C(=O)N[C@@H](C)C(=O)O (H-V[β3hP]IA-OH) ?
99.2

Sample CC(C)[C@H](N)C(=O)N[C@H](C(=O)N[C@H](C(=O)N[C@@H](C)C(=O)O)C(C)(C)C)C(C)C (H-VV[Tle]A-OH) — what was its inhibition?
0

Any idea what inhibition was measured for CC[C@H](C)[C@H](NC(=O)[C@@H](NC(=O)[C@@H](N)Cc1ccc(C(C)(C)C)cc1)C(C)C)C(=O)N[C@@H](C)C(=O)O (H-[Phe(4-tBu)]VIA-OH) ?
57.4
